# System: Bacillus subtilis
# protocol text: cleaved RNA product abundance (RNA/gDNA barcode ratio) relative to median wild-type variant (ratio to wild type); higher = more accumulation of the downstream cleavage product
# measurement conditions: experiment (reporter, strain, medium): exp 2b: truncated aprE reporter, strain BJT200; cleavage site: cggR-gapA (positions -7 to +36 mutated)

>  <entry sequence>
ACAGACGAAGGAGCCGCAAAGAAGTGATTAAGGGATGAATAATACCTCAATATAAATATCTCTCACTTATTTAAA

>  <target system>
Bacillus subtilis

>  <cleaved RNA product abundance>
0.105

$$$$
>  <entry sequence>
ACAGACGAAGGAGCCGCAAATAAGTTATTAAGGGATGAATAATCCCTCCATATAAATATCTCTCACTTATTTAAA

>  <target system>
Bacillus subtilis

>  <cleaved RNA product abundance>
0.274

$$$$
>  <entry sequence>
ACAGACGAAGGAGCCGCAATGAAGTTATTAAGGGATGAATACTCCCTCAATATAAATATCTCTCACTTATTTAAA

>  <target system>
Bacillus subtilis

>  <cleaved RNA product abundance>
0.379

$$$$
>  <entry sequence>
ACAGACGAAGGAGCCGCAAAGAAGTTATTAAGGGATGAATAATCACTCTATATAAATATCTCTCACTTATTTAAA

>  <target system>
Bacillus subtilis

>  <cleaved RNA product abundance>
0.0929

$$$$
>  <entry sequence>
ACAGACGAAGGAGCCGCAAAGAAGTTATTAATGGATGAATAATCACTCAATATAAATATCTCTCACTTATTTAAA

>  <target system>
Bacillus subtilis

>  <cleaved RNA product abundance>
0.106

$$$$
>  <entry sequence>
ACAGACGAAGGAGCCGCAAAGAACTTATTAAGGGATGAATTATCCCTCAATATAAATATCTCTCACTTATTTAAA

>  <target system>
Bacillus subtilis

>  <cleaved RNA product abundance>
0.284

$$$$
>  <entry sequence>
ACAGACGAAGGAGCCGCAAAAAAGTTATTAAGGGATGAATAATCCCTCAATATAAATATCTCTCACTTATTTAAA

>  <target system>
Bacillus subtilis

>  <cleaved RNA product abundance>
1.06

$$$$
>  <entry sequence>
ACAGACGAAGGAGCCGCAAACAAGTTATTAAGGGATGAATTATCCCTCAATATAAATATCTCTCACTTATTTAAA

>  <target system>
Bacillus subtilis

>  <cleaved RNA product abundance>
0.669

$$$$
>  <entry sequence>
ACAGACGAAGGAGCCGCAAAGAAGTTATTAAGGGATAAATAATCCCTCAAGATAAATATCTCTCACTTATTTAAA

>  <target system>
Bacillus subtilis

>  <cleaved RNA product abundance>
0.18

$$$$
>  <entry sequence>
ACAGACGAAGGAGCCGCAAATAAGTTATTTAGGGATGAATAATCCCTCAATATAAATATCTCTCACTTATTTAAA

>  <target system>
Bacillus subtilis

>  <cleaved RNA product abundance>
0.993

$$$$
>  <entry sequence>
ACAGACGAAGGAGCCGCAAAGAAGTAATTAAGGGATGAATAAACCCTCAATATAAATATCTCTCACTTATTTAAA

>  <target system>
Bacillus subtilis

>  <cleaved RNA product abundance>
0.166

$$$$
>  <entry sequence>
ACAGACGAAGGAGCCGCAAAGAAGTTTTTAAGGGATGAATAATCCCTTAATATAAATATCTCTCACTTATTTAAA

>  <target system>
Bacillus subtilis

>  <cleaved RNA product abundance>
0.844

$$$$
>  <entry sequence>
ACAGACGAAGGAGCCGCAAAGAAGTTATTAAGTGATGAATAATCCCTCTATATAAATATCTCTCACTTATTTAAA

>  <target system>
Bacillus subtilis

>  <cleaved RNA product abundance>
0.109

$$$$
>  <entry sequence>
ACAGACGAAGGAGCCGCAATGAAGTTATTAAGGGTTGAATAATCCCTCAATATAAATATCTCTCACTTATTTAAA

>  <target system>
Bacillus subtilis

>  <cleaved RNA product abundance>
0.325

$$$$
>  <entry sequence>
ACAGACGAAGGAGCCGCAAAGAAGTTATTAAGGGATGAATAATCGCTCAATATTAATATCTCTCACTTATTTAAA

>  <target system>
Bacillus subtilis

>  <cleaved RNA product abundance>
0.0992

$$$$
